target: T1, human GPC3 (human, UniProt P51654 25-563); assay: SPR, single-arm antibody
T1 construct: range 25-563; soluble analyte; also called soluble human GPC3; glypican 3
T1 sequence (P51654 25-563 limits assumed): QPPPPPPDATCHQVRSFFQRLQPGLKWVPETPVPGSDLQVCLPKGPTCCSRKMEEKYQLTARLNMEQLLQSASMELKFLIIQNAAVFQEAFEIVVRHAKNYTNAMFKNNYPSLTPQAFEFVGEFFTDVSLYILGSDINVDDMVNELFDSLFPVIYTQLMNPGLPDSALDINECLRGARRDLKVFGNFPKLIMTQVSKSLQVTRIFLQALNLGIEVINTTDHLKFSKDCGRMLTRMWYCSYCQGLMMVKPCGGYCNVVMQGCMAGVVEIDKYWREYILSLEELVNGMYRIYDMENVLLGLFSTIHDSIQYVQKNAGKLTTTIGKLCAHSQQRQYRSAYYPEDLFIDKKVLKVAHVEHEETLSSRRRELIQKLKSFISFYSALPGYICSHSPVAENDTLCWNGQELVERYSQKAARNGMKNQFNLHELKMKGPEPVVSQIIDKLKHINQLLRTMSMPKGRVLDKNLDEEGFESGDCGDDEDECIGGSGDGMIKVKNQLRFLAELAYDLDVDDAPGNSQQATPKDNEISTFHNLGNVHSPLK
Kd reference
READOUT_NAME: Kd

binder="GCH054-G1dh/none-Hi-Kn010G3/L0011-k0 (antibody, V domains shown, one-arm) VH: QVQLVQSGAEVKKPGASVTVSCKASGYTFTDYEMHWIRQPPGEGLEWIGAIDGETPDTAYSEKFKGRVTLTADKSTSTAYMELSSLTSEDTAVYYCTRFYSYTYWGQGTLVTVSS VL: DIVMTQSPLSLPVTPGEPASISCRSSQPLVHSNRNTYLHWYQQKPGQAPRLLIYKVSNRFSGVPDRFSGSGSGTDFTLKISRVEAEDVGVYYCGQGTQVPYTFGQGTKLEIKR" readout_name=Kd test_value="5.25 nM"
binder="GCH065-G1dh/none-Hi-Kn010G3/L0011-k0 (antibody, V domains shown, one-arm) VH: QVQLVQSGAEVKKPGASVTVSCKASGYTFTDYEMHWIRQPPGEGLEWIGAIDGPTPDTAYSEKFKGRVTLTADKSTSTAYMELSSLTSEDTAVYYCTRFYSYTYWGQGTLVTVSS VL: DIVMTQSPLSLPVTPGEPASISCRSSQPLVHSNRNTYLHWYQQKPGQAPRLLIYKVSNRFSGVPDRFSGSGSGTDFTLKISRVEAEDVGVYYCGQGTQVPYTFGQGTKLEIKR" readout_name=Kd test_value="0.884 nM"
binder="GCH094-G1dh/none-Hi-Kn010G3/L0011-k0 (antibody, V domains shown, one-arm) VH: QVQLVQSGAEVKKPGASVTVSCKASGYTFTDYEMHWVRQAPGEGLEWMGAIDGETPDTAYSEKFKGRVTLTADKSTSTAYMELSSLTSEDTAVYYCTRFYSYTYWGQGTLVTVSS VL: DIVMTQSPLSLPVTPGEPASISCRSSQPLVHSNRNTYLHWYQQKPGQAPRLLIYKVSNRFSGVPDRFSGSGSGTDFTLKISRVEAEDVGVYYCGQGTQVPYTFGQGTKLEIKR" readout_name=Kd test_value="4.54 nM"
binder="H0610-G1dh/none-Hi-Kn010G3/L0000-k0 (antibody, V domains shown, one-arm) VH: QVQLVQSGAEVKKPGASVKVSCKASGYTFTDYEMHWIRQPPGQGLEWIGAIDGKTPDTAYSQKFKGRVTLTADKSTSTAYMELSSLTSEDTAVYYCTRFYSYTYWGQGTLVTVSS VL: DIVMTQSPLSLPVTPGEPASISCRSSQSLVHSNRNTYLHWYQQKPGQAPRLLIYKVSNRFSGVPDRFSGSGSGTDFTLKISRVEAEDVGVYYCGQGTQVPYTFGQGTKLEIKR" readout_name=Kd test_value="4.16 nM"
